Entries and their measured EC50 follow.
# measured-target: human S1P1 receptor (Homo sapiens)
# Construct: membranes used
# assay-remarks: GTP γ35S binding assay for S1P1 activity
# measurement-parameters: membranes, 30 min at 25° C., read-out: S1P1 EC50 (Activity potency: S1P1 receptor from GTP γ35S)
Write down the numeric answer in nM and omit the unit.

COc1ccc(CCCCCOc2ccc(CNCCCP(=O)(O)O)cc2-c2ccco2)cc1 : 7.1
O=P(O)(O)CCCNCc1cc(-c2ccco2)c(OCCCCCc2ccccc2)cc1F : 1
Cc1cccc(CCCCCOc2ccc(CNCCCP(=O)(O)O)cc2-c2ccco2)c1 : 34.9
CCCCCCCCCOc1ccc(CNCCCP(=O)(O)O)cc1-c1cccs1 : 517
O=P(O)(O)CCCNCc1ccc(NCCCCCc2ccccc2)c(-c2ncco2)c1 : 15.6

Give a short answer stating reported EC50 for "O=P(O)(O)CCCNCc1ccc(OCCCCCc2ccccc2)c(-c2ccc(F)s2)c1" .
2

Give a short answer stating reported EC50 for "OCC(CO)NCc1ccc(OCCCCCc2ccccc2)c(-c2cccs2)c1" .
714

Give a short answer stating reported EC50 for "O=P(O)(O)CCCNCc1ccc(OCCCCCc2ccccc2)c(-c2ccoc2)n1" .
1

Give a short answer stating reported EC50 for "COc1ccc(CCCCCOc2ccc(CNCCCP(=O)(O)O)cc2-c2cccs2)cc1" .
48.6

----------
# measured-target: human S1P1 receptor (Homo sapiens, UniProt P21453)
# Construct: membranes used
# Sequence (P21453 whole entry): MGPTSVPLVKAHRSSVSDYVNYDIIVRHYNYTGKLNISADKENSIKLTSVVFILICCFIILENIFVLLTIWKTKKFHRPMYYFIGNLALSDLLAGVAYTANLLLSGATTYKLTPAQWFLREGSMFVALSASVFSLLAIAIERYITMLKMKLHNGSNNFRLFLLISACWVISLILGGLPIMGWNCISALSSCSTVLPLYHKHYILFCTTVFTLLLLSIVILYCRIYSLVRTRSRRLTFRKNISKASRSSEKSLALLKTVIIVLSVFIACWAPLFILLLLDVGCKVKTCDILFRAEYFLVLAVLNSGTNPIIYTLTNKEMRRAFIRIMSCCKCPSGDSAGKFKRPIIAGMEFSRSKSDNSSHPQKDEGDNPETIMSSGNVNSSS
# assay-remarks: GTP γ35S binding assay for S1P1 activity
# measurement-parameters: membranes, 30 min at 25° C., read-out: S1P1 EC50 (Activity potency: S1P1 receptor from GTP γ35S)
metric-name: log10 EC50 (log10 of the value in nM)
// units: nM (pre-log); metric: EC50; scale: log10

Below, 10 molecules whose answers are already recorded.
O=P(O)(O)CCCNCc1ccc(OCCCCCc2ccccc2)c(-c2cocn2)c1 : 1.73
O=P(O)(O)CCCNCc1ccc(OCCCCCc2ccccc2)c(-c2cccs2)n1 : -0.11
O=P(O)(O)CCCNCc1ccc(OCCCCCc2ccccc2)c(-n2cccc2)c1 : 0.53
CC(NCCCP(=O)(O)O)c1ccc(OCCCCCc2ccccc2)c(-c2cccs2)c1 (stereo not shown) : 1.21
O=P(O)(O)CCCNCc1ccc(OCCCCCc2ccccc2)c(-c2ccsc2)c1 : 0.52
O=P(O)(O)CCCNCc1ccc(OCCCCCc2ccc(F)cc2)c(-c2ccco2)c1 : -0.01
COc1cccc(CCCCCOc2ccc(CNCCCP(=O)(O)O)cc2-c2ccoc2)c1 : 1.10
O=P(O)(O)CCCNCc1ccc(OCCCCCc2ccccc2)c(-c2cccs2)c1 : 0.11
COc1cccc(CCCCCOc2ccc(CNCCCP(=O)(O)O)cc2-c2cccs2)c1 : 3.05
O=P(O)(O)CCCNCc1ccc(OCCCCCc2ccccc2)c(-c2nccs2)c1 : 0.30

Give a short answer stating reported log10 EC50 for "O=P(O)(O)CCCNCc1ccc(OCCCCCc2ccccc2F)c(-c2ccco2)c1" .
0.00

Give a short answer stating reported log10 EC50 for "O=P(O)(O)CCCNCc1ccc(OCCCCCc2ccccc2)c(C2=CCCC2)c1" .
0.53

Give a short answer stating reported log10 EC50 for "O=P(O)(O)CCCNCc1ccc(OCCCCCc2ccccc2)c(-c2ncco2)c1" .
1.08

Give a short answer stating reported log10 EC50 for "CP(=O)(O)CCCNCc1ccc(OCCCCCc2ccccc2)c(-c2cccs2)c1" .
1.36

Give a short answer stating reported log10 EC50 for "O=P(O)(O)OCCNCc1ccc(OCCCCCc2ccccc2)c(-c2cccs2)c1" .
0.18

Give a short answer stating reported log10 EC50 for CC(CO)NCc1ccc(OCCCCCc2ccccc2)c(-c2cccs2)c1 (stereo not shown) .
2.38

Give a short answer stating reported log10 EC50 for "O=P(O)(O)C(F)(F)CCNCc1ccc(OCCCCCc2ccccc2)c(-c2ccc(F)o2)c1" .
1.73

Give a short answer stating reported log10 EC50 for "COc1ccc(CCCCCOc2ccc(CNCCCP(=O)(O)O)cc2-c2ccco2)cc1F" .
0.85

----------
# measured-target: human S1P1 receptor (Homo sapiens, UniProt P21453)
# Construct: membranes used
# assay-remarks: GTP γ35S binding assay for S1P1 activity
# measurement-parameters: membranes, 30 min at 25° C., read-out: S1P1 EC50 (Activity potency: S1P1 receptor from GTP γ35S)
Entries and their measured EC50 follow.
Form field: result (number plus unit)

Below, 2 compounds whose answers are already recorded.
O=P(O)(O)CCCNCc1ccc(OCCCCCc2ccccc2)c(-c2ccoc2)c1 : 0.6 nM
COc1cccc(CCCCCOc2ccc(CNCCCP(=O)(O)O)cc2-c2ccco2)c1 : 240 nM

Give a short answer stating reported EC50 for "O=P(O)(O)CCCNCc1ccc(OCCCCCc2ccc(Cl)cc2)c(-c2ccco2)c1" .
5.7 nM

Give a short answer stating reported EC50 for "O=P(O)(O)CCCNCc1ccc(NCCCCCc2ccccc2)c(-c2nccs2)c1" .
17.4 nM

----------
# measured-target: human S1P1 receptor (Homo sapiens, UniProt P21453)
# Construct: membranes used
# assay-remarks: GTP γ35S binding assay for S1P1 activity
# measurement-parameters: membranes, 30 min at 25° C., read-out: S1P1 EC50 (Activity potency: S1P1 receptor from GTP γ35S)
metric-name: EC50 (nM)
Write down the numeric answer in nM and omit the unit.

Below, 2 molecules whose answers are already recorded.
O=S(=O)(O)CCCNCc1ccc(OCCCCCc2ccccc2)c(-c2cccs2)c1 : 10.1
CCCCCCCCCCOc1ccc(CNCCCP(=O)(O)O)cc1-c1cccs1 : 294

Kindly consider the entry below.
Give a short answer stating reported EC50 for "O=P(O)(O)CCCNCc1ccc(NCCCCCc2ccccc2)c(-c2ccco2)c1" .
1.5

----------
# measured-target: human S1P1 receptor (Homo sapiens, UniProt P21453)
# Construct: membranes used
# assay-remarks: GTP γ35S binding assay for S1P1 activity
# measurement-parameters: membranes, 30 min at 25° C., read-out: S1P1 EC50 (Activity potency: S1P1 receptor from GTP γ35S)
// boundary case: EC50 equal to 8 nM maps to Not satisfied; strictly smaller maps to Satisfied

Recorded results for 4 molecules are shown here.
[2H]C([2H])(CCCCc1ccccc1)Oc1ccc(CNCCCP(=O)(O)O)cc1-c1ccco1 [Compound 45] : Satisfied
O=P(O)(O)CCCNCc1ccc(OCCCCc2ccc(F)cc2)c(-c2cccs2)c1 [Compound 25] : Not satisfied
O=P(O)(O)CCCNCc1ccc(OCCCCCc2ccc(F)cc2)c(-c2cccs2)c1 [Compound 21] : Not satisfied
O=P(O)(O)CCCNCc1ccc(OCCCCCc2ccccc2)c(-c2ccc(F)o2)c1 [Compound 38] : Satisfied

Item O=P(O)(O)CCCNCc1ccc(OCCCCCc2ccccc2)c(-n2cccn2)c1 [Compound 43] : EC50 beneath 8 nM, strictly?
Not satisfied

Item O=P(O)(O)CCCNCc1ccc(OCCCCCc2ccccc2)c(-c2ccco2)c1 [Compound 1] : EC50 beneath 8 nM, strictly?
Satisfied

Item COc1ccc(CCCCCOc2ccc(CNCCCP(=O)(O)O)cc2-c2cccs2)cc1Cl [Compound 32] : EC50 beneath 8 nM, strictly?
Satisfied

Item O=[PH](O)CCCNCc1ccc(OCCCCCc2ccccc2)c(-c2cccs2)c1 [Compound 37] : EC50 beneath 8 nM, strictly?
Not satisfied

----------
# measured-target: human S1P1 receptor (Homo sapiens, UniProt P21453)
# Construct: expressed in transfected cells; membranes used
# assay-remarks: GTP γ35S binding assay for S1P1 activity
# Format: biochemical
# measurement-parameters: membranes, 30 min at 25° C., read-out: S1P1 EC50 (Activity potency: S1P1 receptor from GTP γ35S)
Entries and their measured pEC50 follow.
Bear in mind: pEC50 is minus log10 of a mol/L concentration; give just that figure.

Lab note: record pEC50 of "COc1ccc(CCCCCOc2ccc(CNCCCP(=O)(O)O)cc2-c2cccs2)cc1F" tested on human S1P1 receptor (Homo sapiens, UniProt P21453).
8.72

Lab note: record pEC50 of CC(CCNCc1ccc(OCCCCCc2ccccc2)c(-c2ccco2)c1)P(=O)(O)O (centres unmarked) tested on human S1P1 receptor (Homo sapiens, UniProt P21453).
7.73

Lab note: record pEC50 of "CC(C)Cc1ccc(CCCOc2ccc(CNCCCP(=O)(O)O)cc2-c2cccs2)cc1" tested on human S1P1 receptor (Homo sapiens, UniProt P21453).
7.83

Lab note: record pEC50 of "O=P(O)(O)CCCNCc1ccc(OCCCCCc2ccc(Cl)cc2)c(-c2cccs2)c1" tested on human S1P1 receptor (Homo sapiens, UniProt P21453).
8.10

Lab note: record pEC50 of "COc1ccc(CCCCCOc2ccc(CNCCCP(=O)(O)O)cc2-c2ccco2)cc1Cl" tested on human S1P1 receptor (Homo sapiens, UniProt P21453).
8.08
